# credit: patent US20200397865A1

Quick list: pKd per entry.
Biological target: T1, ALK4-Fc:ActRIIB-Fc heterodimer (human, UniProt P36896 24-126; Q13705 20-134)
T1 construct: also called ALK4-Fc:ActRIIB-Fc heterodimeric complex; ALK4:ActRIIB heterodimer; not shown: linker and engineered Fc
T1 sequence 1: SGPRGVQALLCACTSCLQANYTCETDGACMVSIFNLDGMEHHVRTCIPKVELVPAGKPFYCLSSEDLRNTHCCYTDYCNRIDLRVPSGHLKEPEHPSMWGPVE
T1 sequence 2: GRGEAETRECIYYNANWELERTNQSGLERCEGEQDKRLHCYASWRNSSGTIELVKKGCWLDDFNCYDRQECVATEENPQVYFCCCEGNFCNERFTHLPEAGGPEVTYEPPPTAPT
Test: SPR (Biacore), Fc protein captured by anti-Fc antibody, ligand injected
pKd: −log10 of the molar value.

[
  {
    "binder": "BMP9 (ligand, UniProt Q9UK05 320-429, looked up, also called GDF2) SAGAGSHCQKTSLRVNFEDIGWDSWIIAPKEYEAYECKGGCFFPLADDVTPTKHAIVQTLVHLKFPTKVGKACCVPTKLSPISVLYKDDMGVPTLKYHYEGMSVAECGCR",
    "pKd": 8.47
  },
  {
    "binder": "activin B (ligand, UniProt P09529 293-407, looked up) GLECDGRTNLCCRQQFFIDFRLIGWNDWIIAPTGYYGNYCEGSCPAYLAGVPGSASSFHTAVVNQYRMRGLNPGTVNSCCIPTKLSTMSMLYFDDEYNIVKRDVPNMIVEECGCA",
    "pKd": 11.22
  },
  {
    "binder": "BMP6 (ligand, UniProt P22004 382-513, looked up) QQSRNRSTQSQDVARVSSASDYNSSELKTACRKHELYVSFQDLGWQDWIIAPKGYAANYCDGECSFPLNAHMNATNHAIVQTLVHLMNPEYVPKPCCAPTKLNAISVLYFDDNSNVILKKYRNMVVRACGCH",
    "pKd": 8.57
  },
  {
    "binder": "GDF11 (ligand, UniProt O95390 299-407, looked up, also called BMP11) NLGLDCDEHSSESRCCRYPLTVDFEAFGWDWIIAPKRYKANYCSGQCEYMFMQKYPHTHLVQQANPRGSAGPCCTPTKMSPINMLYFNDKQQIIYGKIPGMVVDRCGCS",
    "pKd": 11.52
  }
]
